// data source = ChEMBL document CHEMBL1131998

# experimental-system: Purine nucleoside phosphorylase (Homo sapiens)
# Sequence (P00491 whole entry): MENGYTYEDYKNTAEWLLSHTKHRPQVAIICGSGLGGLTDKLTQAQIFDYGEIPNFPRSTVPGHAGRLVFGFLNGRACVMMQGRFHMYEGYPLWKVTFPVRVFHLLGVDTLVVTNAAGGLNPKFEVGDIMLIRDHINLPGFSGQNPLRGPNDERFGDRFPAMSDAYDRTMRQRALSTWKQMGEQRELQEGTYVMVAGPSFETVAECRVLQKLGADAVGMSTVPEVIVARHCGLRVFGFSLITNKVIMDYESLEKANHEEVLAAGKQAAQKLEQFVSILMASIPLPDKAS
# test-name: Compound was evaluated for inhibition of PNP-catalyzed inosine phosphorylation in human erythrocyte
# Format: functional
Binary call on IC50 with cut-off 300 nM: strictly below means Criterion met, and equality or higher means Criterion not met.

Below, 4 compounds whose answers are already recorded.
O=P(O)(O)C(F)(F)C[C@H]1COC[C@@H]1Cn1cnc2c(O)ncnc21 :: Criterion not met
O=P(O)(O)C(F)(F)C[C@H]1COC[C@H]1Cn1cnc2c(O)ncnc21 :: Criterion met
Nc1nc2c(ncn2CC[C@@H]2C[C@H]2C(F)(F)P(=O)(O)O)c(=O)[nH]1 (racemic) :: Criterion not met
O=c1[nH]cnc2c1ncn2CC[C@@H]1C[C@H]1C(F)(F)P(=O)(O)O :: Criterion not met

Please examine the following record next.
Threshold test, IC50 < 300 nM: Nc1nc2c(ncn2CCCCC(F)(F)P(=O)(O)O)c(=O)[nH]1 Criterion not met
